test system: Karpas299 NHL; assay: In vitro cytotoxicity, cell proliferation assay (CellTiter-Glo, 96 h); type: cell-based; settings: Homo sapiens, KARPAS-299, auristatin free drug
Where a SMILES comes first, the peptide text is derived from it. [ ]: non-standard residue; d: D form. The star is where a group is joined. Dolaproine = CO[C@@H]([C@@H]1CCCN1)[C@@H](C)C(=O)O; Dil = CC[C@H](C)[C@H](NC)[C@@H](CC(=O)O)OC; X1 = C[C@@H](N*)[C@@H](O)c1ccccc1; Phe(ol) = N[C@H](CO)Cc1ccccc1; X3 = CN1C(=O)OC[C@@H]1C(=O)*; NMeV = CN[C@H](C(=O)O)C(C)C; NMeS = CN[C@@H](CO)C(=O)O
measured_attribute: pIC50
Value format note: pIC50 is -log10 of concentration (mol/L); just state the number.

Take a look at these entries with their results.
# molecule, measured_attribute, reading
records = [
    ("CC[C@H](C)[C@@H]([C@@H](CC(=O)N1CCC[C@H]1[C@H](OC)[C@@H](C)C(=O)N[C@H](CO)Cc1ccccc1)OC)N(C)C(=O)[C@@H](NC(=O)[C@H]1COC(=O)N1C)C(C)C [Example 45] (X3-V[Dil][Dolaproine][Phe(ol)])", "pIC50", 7.39),
    ("CC[C@H](C)[C@@H]([C@@H](CC(=O)N1CCC[C@H]1[C@H](OC)[C@@H](C)C(=O)NC(CO)Cc1nccs1)OC)N(C)C(=O)[C@@H](NC(=O)[C@H](CO)N(C)C)C(C)C (some centres unmarked)", "pIC50", 7.24),
    ("CC[C@H](C)[C@@H]([C@@H](CC(=O)N1CCC[C@H]1[C@H](OC)[C@@H](C)C(=O)N[C@H](C)[C@@H](O)c1ccccc1)OC)N(C)C(=O)[C@@H](NC(=O)[C@@H](NC)C(C)C)C(C)C [MMAE, monomethyl auristatin E, reference compound] (H-[NMeV]V[Dil][Dolaproine]-X1)", "pIC50", 10.00),
    ("CC[C@H](C)[C@@H]([C@@H](CC(=O)N1CCC[C@H]1[C@H](OC)[C@@H](C)C(=O)N[C@H](CO)Cc1ccccc1)OC)N(C)C(=O)[C@@H](NC(=O)C[C@@H](NC)[C@@H](C)O)C(C)C", "pIC50", 7.89),
]

// next item, pIC50 requested
Please list pIC50 recorded for the molecule CC[C@H](C)[C@@H]([C@@H](CC(=O)N1CCC[C@H]1[C@H](OC)[C@@H](C)C(=O)N[C@H](CO)Cc1ccccc1)OC)N(C)C(=O)[C@@H](NC(=O)[C@H](CO)NC)C(C)C [Example 12] (H-[NMeS]V[Dil][Dolaproine][Phe(ol)])
9.52

Origin of values: patent US20240123080A1
